Reference for the values: patent US9624170B2

molecular target: human MAGL (His-hMAGL) (Homo sapiens, UniProt Q99685); construct: made in house; host or cells: Escherichia coli BL21(DE3); assay: Measurement of MAGL inhibitory activity by mass spectrometry; type: biochemical; settings: MAGL inhibitory rate, test compound 10 μM, His-hMAGL, substrate 2-arachidonylglycerol, RapidFire-mass spectrometry
Sequence (Q99685 whole entry): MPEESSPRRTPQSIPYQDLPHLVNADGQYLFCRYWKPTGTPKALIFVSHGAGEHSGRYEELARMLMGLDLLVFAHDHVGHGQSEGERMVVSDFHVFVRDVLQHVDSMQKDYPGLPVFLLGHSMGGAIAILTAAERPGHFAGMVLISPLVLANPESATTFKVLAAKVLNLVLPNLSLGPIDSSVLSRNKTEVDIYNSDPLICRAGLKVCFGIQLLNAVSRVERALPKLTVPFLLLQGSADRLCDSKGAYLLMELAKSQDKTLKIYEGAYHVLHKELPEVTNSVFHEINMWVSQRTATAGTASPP
Quick reference for inhibition at 10 µM among some compounds
Numbers only; they are read as %.

Any idea what inhibition at 10 µM came out for O=C(c1nccs1)N1CCN(C2CN(c3ccc(Oc4ccccc4)cc3)C(=O)C2F)CC1 (stereo not shown) [Example 261] on human MAGL (His-hMAGL) (Homo sapiens, UniProt Q99685)?
100

Now try Cc1ccc(-n2ccc3cc(N4CC(N5CCN(C(=O)c6nccs6)CC5)CC4=O)ccc32)cc1 (stereo not shown) [Example 235] .
100

Can you check O=C(c1nccs1)N1CCN(C2CC(=O)N(c3ccc4c(ccn4-c4cccc(C(F)(F)F)c4)c3)C2)CC1 (stereo not shown) [Example 280] next?
101
